Recorded measurements of Ki, one per entry
Target: recombinant human NK3 receptor (Homo sapiens (Human))
Sequence (P29371 whole entry): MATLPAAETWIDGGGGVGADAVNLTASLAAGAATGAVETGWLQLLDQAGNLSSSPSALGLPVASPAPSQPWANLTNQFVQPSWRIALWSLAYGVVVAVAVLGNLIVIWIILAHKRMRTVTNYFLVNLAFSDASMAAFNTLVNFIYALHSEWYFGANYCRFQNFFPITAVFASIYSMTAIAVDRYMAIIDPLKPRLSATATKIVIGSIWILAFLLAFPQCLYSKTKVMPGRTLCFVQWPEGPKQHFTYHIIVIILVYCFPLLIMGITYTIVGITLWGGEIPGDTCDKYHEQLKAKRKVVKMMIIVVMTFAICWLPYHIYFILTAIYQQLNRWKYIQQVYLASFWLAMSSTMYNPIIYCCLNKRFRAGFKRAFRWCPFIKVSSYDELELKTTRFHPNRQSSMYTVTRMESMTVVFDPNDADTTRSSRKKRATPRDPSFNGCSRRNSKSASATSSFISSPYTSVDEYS
Test: biochemical
Type: binding
Conditions: read-out: Data Ki (hNK-3 receptor affinity)
observable: Ki

CCN(C(=O)Oc1ccc(F)cc1)[C@@H]1CN(C(=O)C2CCN(c3ccc(F)cn3)CC2)C[C@H]1c1ccc(Cl)c(Cl)c1 = 0.8 nM
CCN(C(=O)Oc1ccc(F)cc1)[C@@H]1CN(C(=O)C2CCN(C(=O)C3(COC)CC3)CC2)C[C@H]1c1ccc(Cl)cc1 = 4.7 nM
CCN(C(=O)Oc1ccc(F)cc1)[C@@H]1CN(C(=O)C2CCN(C(=O)C3CCOC(C)(C)C3)CC2)C[C@H]1c1ccc(Cl)c(F)c1 (stereo partly drawn) = 3 nM
N#Cc1cnc(N2CCC(C(=O)N3C[C@@H](N(C(=O)Oc4ccc(F)cc4)C4CC4)[C@H](c4ccc(Cl)cc4)C3)CC2)cn1 = 48 nM
CCN(C(=O)Oc1ccc(F)cc1)[C@H]1CN(C(=O)C2CCN(C(=O)C3(C)CC3)CC2)C[C@@H]1c1ccc(Cl)c(Cl)c1 = 62 nM
CCN(C(=O)Oc1ccc(F)cc1)[C@@H]1CN(C(=O)C2CCN(c3ccc(C(C)=O)cn3)CC2)C[C@H]1c1ccc(F)cc1 = 7 nM
CCN(C(=O)Oc1ccc(F)cc1)[C@@H]1CN(C(=O)C2CCN(C(=O)C3(C(F)(F)F)CC3)CC2)C[C@H]1c1ccc(Cl)c(F)c1 = 4 nM
CCN(C(=O)Oc1ccc(F)cc1)[C@@H]1CN(C(=O)C2CCN(C(=O)C3CCC(=O)NC3)CC2)C[C@H]1c1ccc(Cl)cc1 (stereo partly drawn) = 32.6 nM
N#Cc1ccc(N2CCC(C(=O)N3C[C@@H](N(C(=O)Oc4ccc(F)cc4)C4CC4)[C@H](c4ccc(Cl)cc4)C3)CC2)nn1 = 52 nM
CCN(C(=O)Oc1ccc(F)cc1)[C@@H]1CN(C(=O)C2CCN(c3cnc(C#N)cn3)CC2)C[C@H]1c1ccc(Cl)cc1 = 2 nM
CCN(C(=O)Oc1ccc(F)cc1)[C@@H]1CN(C(=O)C2CCN(c3ccc(Cl)cn3)CC2)C[C@H]1c1ccc(F)cc1 = 10 nM
CCN(C(=O)Oc1ccc(F)cc1)[C@@H]1CN(C(=O)C2CCN(C(=O)C3(C)CC3)CC2)C[C@H]1c1ccc(Cl)c(Cl)c1 = 2 nM
CCN(C(=O)Oc1ccc(F)cc1)[C@@H]1CN(C(=O)C2CCN(C(=O)c3ccc(F)cc3)CC2)C[C@H]1c1ccc(Cl)c(F)c1 = 4 nM
CCN(C(=O)Oc1ccccc1F)[C@@H]1CN(C(=O)C2CCN(C(=O)c3ccc(C(F)(F)F)cn3)CC2)C[C@H]1c1ccc(Cl)cc1 = 70.7 nM
CCN(C(=O)Oc1ccc(F)cc1)[C@@H]1CN(C(=O)C2CCN(c3ccc(C(C)O)cn3)CC2)C[C@H]1c1ccc(Cl)cc1 (stereo partly drawn) = 4.7 nM
CCN(C(=O)Oc1ccc(F)cc1)[C@H]1CN(C(=O)C2CCN(c3cnc(C#N)cn3)CC2)C[C@@H]1c1ccc(Cl)cc1 = 36 nM
O=C(C1CCN(c2ccc(C(F)(F)F)cn2)CC1)N1C[C@@H](N(C(=O)Oc2ccc(F)cc2)C2CC2)[C@H](c2ccc(Cl)cc2)C1 = 57 nM
CCN(C(=O)Oc1ccc(F)cc1)[C@@H]1CN(C(=O)C2CCN(c3ccc(C)cn3)CC2)C[C@H]1c1ccc(F)c(F)c1 = 9 nM
CCN(C(=O)Oc1ccc(F)cc1)[C@H]1CN(C(=O)C2CCN(c3ccc(C(F)(F)F)cn3)CC2)C[C@@H]1c1ccc(Cl)cc1 = 88 nM
CCN(C(=O)Oc1ccc(F)cc1)[C@@H]1CN(C(=O)C2CCN(c3ccc(C(F)(F)F)cn3)CC2)C[C@H]1c1ccc(F)c(Cl)c1 = 3.7 nM
CCN(C(=O)Oc1ccc(F)cc1)[C@H]1CN(C(=O)C2CCN(c3cc(C#N)ccn3)CC2)C[C@@H]1c1ccc(Cl)cc1 = 138 nM
CCN(C(=O)Oc1ccc(F)cc1)[C@@H]1CN(C(=O)C2CCN(c3cc(C#N)ccn3)CC2)C[C@H]1c1ccc(Cl)c(F)c1 = 3 nM
CCN(C(=O)Oc1ccc(F)cc1)[C@@H]1CN(C(=O)C2CCN(C(=O)C3(C#N)CC3)CC2)C[C@H]1c1ccc(Cl)c(F)c1 = 2 nM
CCN(C(=O)Oc1ccc(F)cc1)[C@@H]1CN(C(=O)C2CCN(C(=O)C3CCC(=O)N(C(C)C)C3)CC2)C[C@H]1c1ccc(Cl)cc1 (stereo partly drawn) = 17.6 nM
CCN(C(=O)Oc1ccc(F)cc1)[C@@H]1CN(C(=O)C2CCN(c3ccc(C(F)(F)F)cn3)CC2)C[C@H]1c1ccc(Cl)cc1 = 3 nM
CCN(C(=O)Oc1ccc(F)cc1)[C@@H]1CN(C(=O)C2CCN(C(=O)C3CC(F)C3)CC2)C[C@H]1c1ccc(Cl)cc1 (stereo partly drawn) = 3.3 nM
CCN(C(=O)Oc1ccc(F)cc1)[C@@H]1CN(C(=O)C2CCN(c3cc(C#N)ccn3)CC2)C[C@H]1c1ccc(Cl)cc1 = 8 nM
